Taken from patent US20110212084A1.

- system-under-test: human IgEλ (U266 derived) (human, UniProt P01854 1-546)
- Sequence (P01854 whole entry): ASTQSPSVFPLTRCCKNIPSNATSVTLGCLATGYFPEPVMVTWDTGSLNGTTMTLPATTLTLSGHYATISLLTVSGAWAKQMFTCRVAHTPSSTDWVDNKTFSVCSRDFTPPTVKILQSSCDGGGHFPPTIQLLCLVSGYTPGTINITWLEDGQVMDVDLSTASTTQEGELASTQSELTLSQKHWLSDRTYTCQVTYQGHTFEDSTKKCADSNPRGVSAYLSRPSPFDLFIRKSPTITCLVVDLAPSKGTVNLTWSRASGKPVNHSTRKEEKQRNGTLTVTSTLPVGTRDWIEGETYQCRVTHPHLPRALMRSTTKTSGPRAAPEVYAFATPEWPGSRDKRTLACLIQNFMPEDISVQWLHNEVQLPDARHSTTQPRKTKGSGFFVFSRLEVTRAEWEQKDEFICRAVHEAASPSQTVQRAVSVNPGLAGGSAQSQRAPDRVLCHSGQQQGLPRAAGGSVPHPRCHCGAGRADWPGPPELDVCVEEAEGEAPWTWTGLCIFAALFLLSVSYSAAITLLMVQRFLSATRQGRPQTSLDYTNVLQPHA
- assay-explanation: HTRF receptor-ligand competition, scFv titrated; Eu-cryptate human IgE (U266) binding to human FcεRI-Fc; geomean
reported-endpoint: IC50 (nM)

INSERT INTO measurements (binder, reported_endpoint, uom, experimental_value) VALUES
  ('Antibody 19 (scFv) (scFv, V domains shown, purified scFv) VH: EVQLLESGGGLVQPGGSLRLSCAASGFTFSSYAMSWVRQAPGKGLEWVSAVSGGSGGRTYYADSVKGRFTISRDNSKNTLYLQMNSLRAEDTAVYYCARHIAVAGTRGFDYWGRGTLVTVSS VL: SFVLTQPPSVSVSPGQTASITCSGDKLGDTYASWYRQRSGQSPVLVIYQDDKRPSGIPERFSGSNSGNTATLTISRTHTMDEADYYCLAWDTRTSGAVFGGGTKLTVL', 'IC50', 'nM', 9),
  ('Antibody 18 (scFv) (scFv, V domains shown, purified scFv) VH: EVQLLESGGGLVQPGGSLRLSCAASGFTFSSYAVSWVRQAPGKGLEWVSAISGGSGGRTYYADSVKGRFTISRDNSKNTLYLQMNSLRAEDTAVYYCARHIAVAGTRGFDYWGRGTLVTVSS VL: SYVLTQPPSVSVSPGQTASITCSGDKLGDTYASWYRQRSGQSPVLVIYQDDKRPSGIPERFSGSNSGDTATLTISGTRTMDEADYYCLAWDTRTSGAVFGGGTKLTVL', 'IC50', 'nM', 6),
  ('Antibody 7 (scFv) (scFv, V domains shown, purified scFv) VH: EVQLLESGGGLVQPGGSLRLSCAASGFTFSSYAMSWVRQAPGKGLEWVSAISGGGGRTYYADSVKGRFTISRDNSKNTLYLQMNSLRAEDTAVYYCARHIAVAGTRGFDYWGRGTLVTVSS VL: SYVLTQPPSVSASPGQTASITCSGDKLGDTYASWYRQRSGQSPVLVIYQDDKRPSGIPERFSGSNSGNTATLTISGTHTMDEADYYCLAWDTRTSGAVFGGGTKLTVL', 'IC50', 'nM', 8);
